- tgt: Kelch-like ECH-associated protein 1 (Keap1) (Homo sapiens, UniProt Q14145)
- Construct: Kelch-repeat domain
- Sequence (Q14145 321-609 limits assumed): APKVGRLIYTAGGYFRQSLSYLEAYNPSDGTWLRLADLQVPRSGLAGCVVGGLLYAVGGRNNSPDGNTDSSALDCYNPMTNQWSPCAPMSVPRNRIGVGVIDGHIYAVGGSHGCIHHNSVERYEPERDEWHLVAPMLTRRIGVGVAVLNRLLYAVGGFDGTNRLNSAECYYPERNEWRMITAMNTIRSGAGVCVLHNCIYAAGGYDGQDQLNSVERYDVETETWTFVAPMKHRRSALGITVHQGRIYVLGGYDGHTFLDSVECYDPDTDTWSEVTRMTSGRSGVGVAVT
- assay overview: FP competition with FITC-(βAla)-DEETGEF-OH; thermal shift (ΔTm […] °C at […])
- Format: binding
readout: IC50

>>> reported_value("COC1=C(NCC(=O)O)C[C@@](O)(CO)C/C1=N\\[C@@H](CO)C(=O)O [shinorine]")
"~100 µM"

---

- tgt: Kelch-like ECH-associated protein 1 (Keap1) (Homo sapiens)
- Construct: Kelch-repeat domain
- assay overview: FP competition with FITC-(βAla)-DEETGEF-OH; thermal shift (ΔTm […] °C at […])
- Format: binding
readout: IC50

>>> reported_value("COC1=C(NCC(=O)O)CC(O)(CO)CC1=NC(C(=O)O)C(C)O (stereo not shown)")
"~100 µM"
